- Tested On: UniProtKB P56373
- Protocol Text: In vitro electrophysiology assay for P2X3 (automated whole-cell patch clamp, Sophion Qube)
- Type: cell-based
- Condition Details: Table 7; range of activity
pIC50: −log10 of the molar value.
Measured Endpoint: pIC50

Sample records with pIC50:
- Molecule: "COc1cc(-c2ccc(F)cc2)cc2c(NC(C)c3cccc(=O)[nH]3)ncnc12 (single isomer, unassigned) [Example 191]"
  Measured Endpoint: "pIC50"
  Result: "> 6.50"
- Molecule: "COc1cc(-c2ncc(C)cn2)cc2c(NCc3ccc(C(F)(F)F)nc3)ncnc12 [Example 155]"
  Measured Endpoint: "pIC50"
  Result: "> 6.50"

Item COc1cc(-c2ccc(F)cc2)cc2c(NC(C)c3cccc(=O)[nH]3)ncnc12 (single isomer, unassigned) [Example 190] has what recorded pIC50? 5.50 to 6.50

Item COc1cc(-c2ncc(C)s2)cc2c(NCc3ccc(Cl)cn3)ncnc12 [Example 117] has what recorded pIC50? > 6.50

Item COc1cc(-c2ncc(C)cn2)cc2c(NCc3ccc(C)nc3)ncnc12 [Example 154] has what recorded pIC50? > 6.50

Item COc1cc(-c2ccc(C)cn2)cc2c(NCc3nnc(C)o3)ncnc12 [Example 143] has what recorded pIC50? > 6.50

Item COc1cc(-c2ncc(F)cn2)cc2c(NC(C)c3noc(C)n3)ncnc12 (centres unmarked) [Example 108] has what recorded pIC50? 5.50 to 6.50

Item COc1cc(-c2ccc(C)cn2)cc2c(NCc3nc(C)no3)ncnc12 [Example 142] has what recorded pIC50? > 6.50

---

- Tested On: h P2X2/3 (Homo sapiens, UniProt P56373+Q9UBL9)
- Sequence (P56373 whole entry): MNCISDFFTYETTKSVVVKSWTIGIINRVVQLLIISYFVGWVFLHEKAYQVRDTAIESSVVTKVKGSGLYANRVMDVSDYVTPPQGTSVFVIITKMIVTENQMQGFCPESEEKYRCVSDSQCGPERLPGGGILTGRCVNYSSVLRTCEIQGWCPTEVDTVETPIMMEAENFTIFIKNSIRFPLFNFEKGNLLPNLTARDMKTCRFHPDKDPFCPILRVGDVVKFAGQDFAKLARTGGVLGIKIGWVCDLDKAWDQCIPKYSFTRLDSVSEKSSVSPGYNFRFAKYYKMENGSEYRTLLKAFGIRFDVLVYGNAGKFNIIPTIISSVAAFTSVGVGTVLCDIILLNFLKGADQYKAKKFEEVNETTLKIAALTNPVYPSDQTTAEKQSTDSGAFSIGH
- Sequence (Q9UBL9 whole entry): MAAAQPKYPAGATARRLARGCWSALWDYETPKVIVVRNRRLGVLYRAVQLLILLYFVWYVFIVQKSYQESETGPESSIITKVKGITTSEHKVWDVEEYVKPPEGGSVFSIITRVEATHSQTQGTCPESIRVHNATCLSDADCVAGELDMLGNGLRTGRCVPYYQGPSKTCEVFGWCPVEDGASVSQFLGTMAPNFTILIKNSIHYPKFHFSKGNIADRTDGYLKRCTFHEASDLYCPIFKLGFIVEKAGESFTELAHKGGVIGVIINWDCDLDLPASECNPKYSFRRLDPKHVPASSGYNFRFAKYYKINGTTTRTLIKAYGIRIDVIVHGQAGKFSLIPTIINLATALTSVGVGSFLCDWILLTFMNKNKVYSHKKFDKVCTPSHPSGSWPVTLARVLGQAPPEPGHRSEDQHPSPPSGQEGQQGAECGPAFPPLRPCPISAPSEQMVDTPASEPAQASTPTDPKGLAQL
- Protocol Text: In vitro electrophysiology assay for P2X2/3 (same protocol, 10 μM ATP as agonist)
- Condition Details: Table 7, range of activity
pIC50: −log10 of the molar value.
Measured Endpoint: pIC50

Sample records with pIC50:
- Compound: "COc1cc(-c2ncc(C)cn2)cc2c(NCc3ccc(C(F)(F)F)nc3)ncnc12"
  Result: "5.50 to 6.50"
- Compound: "COc1cc(-c2ncc(C)cn2)cc2c(N[C@H](C)c3noc(C)n3)ncnc12"
  Result: "4.50 to 5.50"
- Compound: "COc1cc(-c2ncc(C)s2)cc2c(NCc3nc(C(F)(F)F)no3)ncnc12"
  Result: "5.50 to 6.50"

Consider the record given below.
Item COc1cc(-c2ccc(F)cn2)cc2c(NC(C)c3nc(C)no3)ncnc12 (single isomer, unassigned) [Example 176] has what recorded pIC50? 4.50 to 5.50

---

- Tested On: h P2X3 (Homo sapiens)
- Protocol Text: In vitro electrophysiology assay for P2X3 (automated whole-cell patch clamp, Sophion Qube)
- Format: cell-based
- Condition Details: Table 6; range of activity; inhibition of P2X3 current, agonist α,β-MeATP (800 nM)
pIC50: −log10 of the molar value. Where a name gives a salt, the structure may show the parent alone.
This section presents compounds with their documented pIC50 values.

Sample records with pIC50:
- Compound: "CN1CCC(CNc2ncnc3c(OCC(=O)O)cc(-c4ccc(F)cc4)cc23)CC1 [Example 57, Hydrochloride]"
  Tested On: "h P2X3 (Homo sapiens)"
  pIC50: "5.50 to 6.50"
- Compound: "COc1cc(-n2cc(Cl)cn2)cc2c(N[C@H](C)c3ccc(C)nn3)ncnc12"
  Tested On: "h P2X3 (Homo sapiens)"
  pIC50: "> 6.50"
- Compound: "COc1cc(-c2ncc(C)cn2)cc2c(NC(C)c3nc(C)no3)ncnc12 (single isomer, unassigned) [Example 123]"
  Tested On: "h P2X3 (Homo sapiens)"
  pIC50: "> 6.50"
- Compound: "COc1cc(-c2ccc(F)cc2)cc2c(NC(C)c3cccc(=O)[nH]3)ncnc12 (single isomer, unassigned) [Example 190]"
  Tested On: "h P2X3 (Homo sapiens)"
  pIC50: "5.50 to 6.50"

Consider the record given below.
Missing value: pIC50, h P2X3 (Homo sapiens), entry "COc1cc(-n2ccc(C)n2)cc2c(N[C@H](C)c3ccc(C)nn3)ncnc12" . Fill in? 5.50 to 6.50

---

- Tested On: h P2X3 (Homo sapiens)
- Protocol Text: In vitro electrophysiology assay for P2X3 (automated whole-cell patch clamp, Sophion Qube)
- Type: cell-based
- Condition Details: Table 6; range of activity; inhibition of P2X3 current, agonist α,β-MeATP (800 nM)
pIC50: −log10 of the molar value. Counter-ions that a name gives are not always drawn.
Measured Endpoint: pIC50

Sample records with pIC50:
- Compound: "Cc1ccc(CNc2ncnc3c(OC4COC4)cc(-c4ccc(F)cc4)cc23)nn1"
  Result: "4.50 to 5.50"
- Compound: "Cc1ccc([C@@H](C)Nc2ncnc3c(OC4CCOCC4)cc(-c4ncc(C)s4)cc23)nn1"
  Result: "> 6.50"
- Compound: "Cc1cnc(-c2cc(OCC(=O)O)c3ncnc(NCc4ccc(C)nn4)c3c2)nc1 [Example 55, dihydrochloride]"
  Result: "> 6.50"
- Compound: "COc1cc(-c2ncc(C)cn2)cc2c(NCc3ccc(C(F)(F)F)nc3)ncnc12"
  Result: "> 6.50"

Item "COc1cc(-c2ncc(C)s2)cc2c(NCc3nc(C(F)(F)F)no3)ncnc12" has what recorded pIC50? > 6.50

Item COc1cc(-c2ccn(C)n2)cc2c(NC(C)c3nnc(C)o3)ncnc12 (centres unmarked) has what recorded pIC50? 5.50 to 6.50

Item "COc1cc(-c2ccc(C)cn2)cc2c(NCc3nnc(C)o3)ncnc12" has what recorded pIC50? > 6.50

Item COc1cc(-n2ccc(Cl)n2)cc2c(NC(C)c3ccc(C)nn3)ncnc12 (centres unmarked) has what recorded pIC50? 5.50 to 6.50

---

- Tested On: h P2X3 (Homo sapiens, UniProt P56373)
- Protocol Text: In vitro electrophysiology assay for P2X3 (automated whole-cell patch clamp, Sophion Qube)
- Type: cell-based
- Condition Details: Table 6; range of activity; inhibition of P2X3 current, agonist α,β-MeATP (800 nM)
pIC50: −log10 of the molar value.
This section presents compounds with their documented pIC50 values.

- Compound: "COc1cc(-c2ncc(C)s2)cc2c(NCc3ccc(C(F)(F)F)cn3)ncnc12"
  Result: "> 6.50"
- Compound: "C[C@@H](Nc1ncnc2c(-c3ccnnc3)cc(-c3ccc(F)cc3)cc12)c1cnc(C(F)(F)F)nc1"
  Result: "> 6.50"

Consider the record given below.
Item Cc1cnc(-c2cc(OCC3(O)CCOCC3)c3ncnc(NC(C)c4ccc(C)nn4)c3c2)nc1 (stereo not drawn) has what recorded pIC50? 5.50 to 6.50

---

This section presents compounds with their documented pIC50 values.
- Tested On: h P2X2/3 (Homo sapiens, UniProt P56373+Q9UBL9)
- Protocol Text: In vitro electrophysiology assay for P2X2/3 (same protocol, 10 μM ATP as agonist)
- Condition Details: Table 7, range of activity
- Method: Cells expressing P2X3 receptors were grown according to standard practice and maintained at 37° C. in a 5% humidified CO2 atmosphere. The cells were seeded into T175 flask 2 days prior to the day of the assay and dissociated from the flasks using TrypLE when grown to confluence of 80-90%. […] One concentration of an antagonist was assessed against a single cell, with different concentrations of the antagonist applied to other cells on the 384 recording substrate. […]
pIC50: −log10 of the molar value.

- Compound: "Cc1cnc(-c2cc(OC3CCOCC3)c3ncnc(NC(C)c4ccc(C)nn4)c3c2)nc1 (single isomer, unassigned) [Example 28]"
  pIC50: "5.50 to 6.50"
- Compound: "COc1cc(-c2ncc(F)cn2)cc2c(NC(C)c3noc(C)n3)ncnc12 (centres unmarked) [Example 108]"
  pIC50: "4.50 to 5.50"
- Compound: "COc1cc(-c2ncc(C)s2)cc2c(NCc3ccc(C(F)(F)F)cn3)ncnc12 [Example 116]"
  pIC50: "5.50 to 6.50"
- Compound: "COc1cc(-c2ncc(C)cn2)cc2c(NCc3cnc(C(F)(F)F)nc3)ncnc12 [Example 145]"
  pIC50: "5.50 to 6.50"
- Compound: "COc1cc(-c2ccc(F)cn2)cc2c(NCc3ccc(C(F)(F)F)nc3)ncnc12 [Example 150]"
  pIC50: "4.50 to 5.50"

Item COc1cc(-c2ccc(F)cc2)cc2c(NC(C)c3cccc(=O)[nH]3)ncnc12 (single isomer, unassigned) [Example 191] has what recorded pIC50? 5.50 to 6.50

Item COc1cc(-c2ncc(C)cc2F)cc2c(N[C@H](C)c3noc(C)n3)ncnc12 [Example 157] has what recorded pIC50? 4.50 to 5.50

Item COc1cc(-c2ncc(C)s2)cc2c(NCc3cc(C)no3)ncnc12 [Example 111] has what recorded pIC50? 5.50 to 6.50

Item COc1cc(-c2ncc(C)s2)cc2c(N[C@H](C)c3ccc(C)nn3)ncnc12 [Example 5] has what recorded pIC50? 5.50 to 6.50

Item COc1cc(-c2ncc(C)cn2)cc2c(NCc3nnc(C)s3)ncnc12 [Example 153] has what recorded pIC50? 4.50 to 5.50
